Data provenance is patent US20070280945A1.

testedOn: T1, hIL-6R-hFc (human, UniProt P08887 20-358)
T1 construct: also called dimeric hIL-6R; Dimer; not shown: human Fc (hFc)
T1 sequence: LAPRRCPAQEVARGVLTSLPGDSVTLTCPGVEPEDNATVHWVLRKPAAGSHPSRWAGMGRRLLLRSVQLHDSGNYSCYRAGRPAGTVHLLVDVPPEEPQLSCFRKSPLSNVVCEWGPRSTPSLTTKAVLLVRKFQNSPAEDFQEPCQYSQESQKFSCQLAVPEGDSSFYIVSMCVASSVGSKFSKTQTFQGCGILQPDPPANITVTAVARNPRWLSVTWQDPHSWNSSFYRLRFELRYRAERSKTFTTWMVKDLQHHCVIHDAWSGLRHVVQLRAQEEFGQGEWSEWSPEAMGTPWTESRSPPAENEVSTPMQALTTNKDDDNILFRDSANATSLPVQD
protocolNotes: SPR (BIAcore), antibody captured on anti-mouse IgG surface, dimeric hIL-6R
Would you mind telling me the reported pKd of each entry?
Note on units: pKd is unitless, being -log10 of a concentration expressed in mol/L.

*Q* Which pKd is reported for this binder? VV3D8-4 (antibody, V domains shown, Human variable regions with mouse constant region) VH: EVQLVESGGGLVQPGRSLRLSCAASGFTFDDYALHWVRQAPGKGLEWVSGISWNSGRIGYADSVKGRFTISRDNAKNSLFLQMNSLRAEDTALYYCAKGRDAFDIWGQGTLVTVSS VL: DIQMTQSPSSVSASVGDRVTITCRASQGISSWLAWYQQKPGKAPKLLIYAASSLQSGVPSRFSGSGSGTDFTLTISSLQPEDFATYYCQQANSFPYTFGQGTKLEIK
*A* 9.76

*Q* Looking for the measured pKd of VQ8F11-21 (antibody, V domains shown, Human variable regions with mouse constant region; also called VQ8F11-21 mIgG2a) VH: EVQLVESGGGLVQPGRSLRLSCAASRFTFDDYAMHWVRQAPGKGLEWVSGISWNSGRIGYADSVKGRFTISRDNAENSLFLQMNGLRAEDTALYYCAKGRDSFDIWGQGTMVTVSS VL: DIQMTQSPSSVSASVGDRVTITCRASQGISSWLAWYQQKPGKAPKLLIYGASSLESGVPSRFSGSGSGTDFTLTISSLQPEDFASYYCQQANSFPYTFGQGTKLEIK , can you help?
*A* 10.64

*Q* Which measured pKd value corresponds to VV1G4-7 (antibody, IgG2a, V domains shown, Human variable regions with mouse constant region) VH: QVQLVQSGAEVKEPGASVKVSCKASGYTFTSYDIIWVRQATGQGLEWMGWMNPNSGNTGYTQNLQGRVTLTRNTSITTVYMELSSLSSEDTAVYYCARDYSSHYYGLDVWGQGTTVTVSS VL: DIQLTQSPSFLSTSIGDRVTITCWASQDISNYLAWYQQKPGKAPKLLIFVASTLQSGVPSRFSGSGSGTEFTLTISSLQPEDFATYYCQQFNSYPLTFGGGTKVEIK ?
*A* 10.15
